Could you please report measured Population Apoptotic (%) for the items listed next?
- System: Fibroblast
- TEST DETAILS: Multiplex assay against human fibroblast
- Assay type: toxicity, cell-based
- CONDITION: 12 h, 1 µM, compound concentration 1 uM, replicate 1
Units required after the number.

Take a look at these entries with their results.
O=C(Nc1ccc(-c2ccnc(Nc3ccc(N4CCOCC4)cc3)n2)cc1)[C@@H]1CCCN1
58%
O=C(Nc1ccc(-n2nc(-c3cccnc3)cc2C(F)(F)F)cn1)c1ccc(-c2ccccc2)c(F)c1
63%
NC(=O)c1cccc(-c2cc(Nc3ccc(OC(F)(F)F)cc3)ncn2)c1
80%
CCCS(=O)(=O)c1nc(NC2CC2)cc(-c2ccc3c(ccn3C3CC(C)(C)NC(C)(C)C3)c2)n1
41%
CCn1c(=O)c(-c2ccc(-c3cncs3)cc2Cl)cc2cnc(Nc3ccc(N4CCN(C)CC4)cc3)nc21
53%

For each of the items listed, what is its Population Apoptotic (%)?
1. Cl.O=c1c2cccn2c2ccccc2n1CCCN1CCC(c2ccc(Cl)cc2)CC1
2. CCN1CCN(Cc2ccc(Nc3ncc(F)c(-c4cc(F)c5nc(C)n(C(C)C)c5c4)n3)nc2)CC1.CS(=O)(=O)O
3. COc1cc2ncnc(Nc3ccc(F)c(Cl)c3)c2cc1NC(=O)/C=C/CN1CCCCC1 [DACOMITINIB ANHYDROUS]

Found:
["68%", "75%", "72%"]

---

- Test system: HEK-293T
- TEST DETAILS: Multiplex assay against HEK293T
- Type: toxicity, cell-based
- CONDITION: human, 24 h, 1 µM, compound concentration 1 uM, replicate 1
Could you please report measured Population Fragmented Nuclei (%) for the items listed next?
Numbers only, in %.

For each of the items listed, what is its Population Fragmented Nuclei (%)?
1. CCOC(=O)c1c(C)[nH]c2ccc3c(c12)CN1CCc2cc(OC)ccc2C1O3 (centres undefined)
2. O=C(Nc1ccc(-n2nc(-c3cccnc3)cc2C(F)(F)F)cn1)c1ccc(-c2ccccc2)c(F)c1
3. CCCS(=O)(=O)c1nc(NC2CC2)cc(-c2ccc3c(ccn3C3CC(C)(C)NC(C)(C)C3)c2)n1

Found:
17
25
10

Lookup: Item: `O=C(Nc1ccc(-c2ccnc(Nc3ccc(N4CCOCC4)cc3)n2)cc1)[C@@H]1CCCN1` Test system: HEK-293T Read-out: Population Fragmented Nuclei (%) Value: ?
Found: 10

---

Could you please report measured Total Cell Count for the items listed next?
- Tested on: U2OS
- TEST DETAILS: Multiplex assay against U2OS
- Assay type: toxicity, cell-based
- CONDITION: human, 48 h, 10 µM, compound concentration 10 uM, replicate 2
One number for each entry.

Take a look at these entries with their results.
O=C1NC(=O)C(c2cnc3ccccn23)=C1c1cn2c3c(cc(F)cc13)CN(C(=O)N1CCCCC1)CC2
93
CN1CCC(=C2c3ccccc3CC(=O)c3sccc32)CC1.O=C(O)/C=C/C(=O)O [KETOTIFEN FUMARATE]
130
CCc1cccc(CC)c1NC(=O)c1nn(C)c2c1CCc1cnc(Nc3ccc(C(=O)NC4CCN(C)CC4)cc3OC(F)(F)F)nc1-2
97
O=C(Nc1ccc(-n2nc(-c3cccnc3)cc2C(F)(F)F)cn1)c1ccc(-c2ccccc2)c(F)c1
128
Cc1cn(-c2cc(NC(=O)c3ccc(C)c(Nc4nccc(-c5cccnc5)n4)c3)cc(C(F)(F)F)c2)cn1
132

For each of the items listed, what is its Total Cell Count?
1. COc1cc(N2CCN(C)CC2)ccc1Nc1ncc2c(n1)N(C)c1ccccc1C(=O)N2C
2. O=C(Nc1ccc(Cl)cc1)Nc1cccc(-c2cccc(N3CCCC3)n2)c1
3. CN1C2CCC1CC(OC(c1ccc(F)cc1)c1ccc(F)cc1)C2.Cl (stereo not drawn)

Found:
1. 57
2. 108
3. 127

meta.source: ChEMBL document CHEMBL4689842
